Hello, the source for this data is ChEMBL document CHEMBL3871299, in case you need it.

biological target: Acetylcholinesterase (Homo sapiens, UniProt P22303); experiment: Inhibition of acetylcholinesterase (unknown origin) assessed as reduction in formation of 5-thio-2-nitrobenzoate from acetylthiocholine iodide at 5 ug/ml preincubated for 15 mins followed by substrate addition measured after 30 mins by Ellman's method
Sequence (P22303 whole entry): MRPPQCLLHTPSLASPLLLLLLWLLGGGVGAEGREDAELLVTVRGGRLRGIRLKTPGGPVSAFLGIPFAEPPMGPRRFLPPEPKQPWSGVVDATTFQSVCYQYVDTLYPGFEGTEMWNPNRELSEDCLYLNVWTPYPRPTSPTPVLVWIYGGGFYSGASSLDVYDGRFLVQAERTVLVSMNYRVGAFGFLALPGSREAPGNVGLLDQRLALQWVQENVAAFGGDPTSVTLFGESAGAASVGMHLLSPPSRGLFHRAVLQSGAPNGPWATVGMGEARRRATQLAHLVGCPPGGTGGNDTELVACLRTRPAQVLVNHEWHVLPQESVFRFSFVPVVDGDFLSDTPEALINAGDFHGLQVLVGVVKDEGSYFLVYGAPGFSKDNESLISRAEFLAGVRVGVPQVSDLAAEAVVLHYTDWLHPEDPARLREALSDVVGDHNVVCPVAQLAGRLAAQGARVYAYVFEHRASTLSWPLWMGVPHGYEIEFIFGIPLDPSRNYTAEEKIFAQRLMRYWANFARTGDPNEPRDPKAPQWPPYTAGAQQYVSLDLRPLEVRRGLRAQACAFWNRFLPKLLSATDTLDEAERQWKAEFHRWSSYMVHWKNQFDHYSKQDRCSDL
Measurement Kind: inhibition (%)
Only the number, expressed in %, is required.

Some compounds with recorded inhibition:
Compound: O=C1/C(=C/c2ccc(Cl)cc2)CN(Cc2ccc3ccccc3c2)C/C1=C\c1ccc(Cl)cc1
Unit Label: %
inhibition: 42.4

Compound: Cc1ccc(C=C2CNCC3=C2N=C2SC=C(c4ccc(Br)cc4)N2C3c2ccc(C)cc2)cc1 (stereo not given)
Unit Label: %
inhibition: 64.6

Compound: Cc1cccc(CN2C/C(=C\c3ccc(Cl)cc3)C(=O)/C(=C/c3ccc(Cl)cc3)C2)c1
Unit Label: %
inhibition: 41.6

Compound: Cc1ccc(C=C2CNCC3=C2N=C2SC=C(c4ccc5ccccc5c4)N2C3c2ccc(C)cc2)cc1 (stereo not given)
Unit Label: %
inhibition: 69.6

Compound: O=C1/C(=C/c2ccc(Br)cc2)CN(Cc2ccc3ccccc3c2)C/C1=C\c1ccc(Br)cc1
Unit Label: %
inhibition: 67.2

### Prompt Read off the recorded inhibition for "Cc1ccc(/C=C2\CN(Cc3ccc4ccccc4c3)C/C(=C\c3ccc(C)cc3)C2=O)cc1"
### Response 72.6

### Prompt Please give the documented inhibition of Cc1ccc(C=C2CNCC3=C2N=C2SC=C(c4ccccc4)N2C3c2ccc(C)cc2)cc1 (stereo not given)
### Response 45.7

### Prompt # return recorded inhibition for input Clc1ccc(C=C2CNCC3=C2N=C2SC=C(c4ccccc4)N2C3c2ccc(Cl)cc2)cc1 (stereo not given)
### Response 41.6

###

test: Cytotoxicity against human SH-SY5Y cells assessed as reduction in cell viability at 0.2 to 40 uM measured after 24 hrs by MTT assay; type: toxicity, cell-based
Measurement Kind: Activity

Molecule: Cc1ccc(C2=CSC3=NC4=C(CNCC4=Cc4ccc(Br)cc4)C(c4ccc(Br)cc4)N23)cc1 (stereo not given)
Activity: Non-Toxic
--
Molecule: Cc1ccc(C=C2CNCC3=C2N=C2SC=C(c4ccc5ccccc5c4)N2C3c2ccc(C)cc2)cc1 (stereo not given)
Activity: Non-Toxic
--
Molecule: O=C1/C(=C/c2ccc(Br)cc2)CN(Cc2ccc3ccccc3c2)C/C1=C\c1ccc(Br)cc1
Activity: Non-Toxic
--
Molecule: Brc1ccc(C=C2CNCC3=C2N=C2SC=C(c4ccc5ccccc5c4)N2C3c2ccc(Br)cc2)cc1 (stereo not given)
Activity: Non-Toxic

Okay, now this molecule:
### Prompt # return recorded Activity for input Cc1ccc(C2=CSC3=NC4=C(CNCC4=Cc4ccc(Cl)cc4)C(c4ccc(Cl)cc4)N23)cc1 (stereo not given)
### Response Non-Toxic

###

target: Acetylcholinesterase (Homo sapiens, UniProt P22303); assay: Inhibition of acetylcholinesterase (unknown origin) assessed as reduction in formation of 5-thio-2-nitrobenzoate from acetylthiocholine iodide at 5 ug/ml preincubated for 15 mins followed by substrate addition measured after 30 mins by Ellman's method
Parameter threshold = 50%. Response is 1.0 when inhibition meets or exceeds it, else 0.0.

Compound: C(=C1CNCC2=C1N=C1SC=C(c3ccc4ccccc4c3)N1C2c1ccccc1)c1ccccc1 (configuration not stated)
Target: Acetylcholinesterase (Homo sapiens, UniProt P22303)
Label Value: 0.0
//
Compound: Cc1ccc(/C=C2\CN(Cc3cccc(C)c3)C/C(=C\c3ccc(C)cc3)C2=O)cc1
Target: Acetylcholinesterase (Homo sapiens, UniProt P22303)
Label Value: 1.0
//
Compound: Clc1ccc(C=C2CNCC3=C2N=C2SC=C(c4ccc5ccccc5c4)N2C3c2ccc(Cl)cc2)cc1 (configuration not stated)
Target: Acetylcholinesterase (Homo sapiens, UniProt P22303)
Label Value: 1.0
//
Compound: Brc1ccc(C=C2CNCC3=C2N=C2SC=C(c4ccccc4)N2C3c2ccc(Br)cc2)cc1 (configuration not stated)
Target: Acetylcholinesterase (Homo sapiens, UniProt P22303)
Label Value: 1.0
//
Compound: Clc1ccc(C=C2CNCC3=C2N=C2SC=C(c4ccc(Br)cc4)N2C3c2ccc(Cl)cc2)cc1 (configuration not stated)
Target: Acetylcholinesterase (Homo sapiens, UniProt P22303)
Label Value: 0.0

Now consider a different compound.
### Prompt Has "Cc1cccc(CN2C/C(=C\c3ccc(Br)cc3)C(=O)/C(=C/c3ccc(Br)cc3)C2)c1" a recorded inhibition greater than or equal to 50%?
### Response 0.0
